pIC50: −log10 of the molar value.
// values below are pIC50; system is UniProtKB P11387
Sequence (P11387 whole entry): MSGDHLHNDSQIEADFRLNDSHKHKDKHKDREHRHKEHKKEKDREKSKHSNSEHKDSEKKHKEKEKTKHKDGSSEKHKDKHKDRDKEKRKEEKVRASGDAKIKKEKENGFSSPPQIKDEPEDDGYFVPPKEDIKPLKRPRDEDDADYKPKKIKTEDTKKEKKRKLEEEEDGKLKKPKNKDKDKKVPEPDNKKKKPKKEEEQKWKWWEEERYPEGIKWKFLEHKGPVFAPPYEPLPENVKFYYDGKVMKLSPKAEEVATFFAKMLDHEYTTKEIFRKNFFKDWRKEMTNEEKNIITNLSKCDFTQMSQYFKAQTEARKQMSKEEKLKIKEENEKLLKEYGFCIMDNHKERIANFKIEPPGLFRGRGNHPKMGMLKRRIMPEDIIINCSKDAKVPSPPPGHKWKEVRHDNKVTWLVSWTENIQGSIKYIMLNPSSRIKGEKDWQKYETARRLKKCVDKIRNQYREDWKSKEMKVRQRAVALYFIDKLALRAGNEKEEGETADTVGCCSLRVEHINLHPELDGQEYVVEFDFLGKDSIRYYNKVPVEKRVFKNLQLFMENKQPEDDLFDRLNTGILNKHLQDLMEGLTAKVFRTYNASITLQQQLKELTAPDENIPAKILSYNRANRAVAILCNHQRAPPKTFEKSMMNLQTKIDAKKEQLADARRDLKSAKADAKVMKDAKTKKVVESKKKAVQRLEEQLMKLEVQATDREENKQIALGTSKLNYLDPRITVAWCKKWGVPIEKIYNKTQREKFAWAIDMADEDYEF

Answered examples (2):
CC[C@@]1(O)C(=O)OCc2c1cc1n(c2=O)Cc2cc3cc(/C=C/C(=O)OC)ccc3nc2-1 < 4.00
CC[C@@]1(O)C(=O)OCc2c1cc1n(c2=O)Cc2cc3c(/C=C/c4ccccc4)cccc3nc2-1 < 4.00

Now for the compound whose pIC50 we want.
Consider the compound CC[C@@]1(O)C(=O)OCc2c1cc1n(c2=O)Cc2cc3c(CCc4ccccc4)cccc3nc2-1 and give its measured pIC50.
< 4.00

These data points were gathered from ChEMBL document CHEMBL1129891.
